assay text: NCI Yeast Anticancer Drug Screen. Data for the mec2-1 strain (AID 157)
experimental context: S. cerevisiae mec2-1 strain, at 50.0 µM, hits give high values
Compounds without any hit were thinned out: in the full panel of roughly 79,000, 15% have a hit.
assay endpoint: growth inhibition (%)
Form entry: value (%) — number only.

Some molecules with recorded growth inhibition:
C[CH2][Pb]([CH2]C)([CH2]C)[O]C(C)=O ... 76
O=C(Nc1n[c]([Hg][Cl])[c]([Hg][Cl])s1)OCc1ccccc1 ... 99.5
COC(=O)N/N=C(/CCN1CCCC1)CC(c1ccccc1)c1c(O)c2ccccc2oc1=O (stereo not drawn) ... -4.45
CC(=O)OC1OC(CS[As](C)CCO)C(OC(C)=O)C(OC(C)=O)C1OC(C)=O (stereo not drawn) ... -16.9
O=[N+]([O-])c1ncc[nH]1 ... -19.7

query: Item NCCN.O=C([O-])C(=O)[O-].O=C([O-])C(=O)[O-].[Co+3].[K+] has what recorded growth inhibition?
result: -8.5

query: Item CN(C)CCN=C(N)N[N+](=O)[O-] has what recorded growth inhibition?
result: 3.75

query: Item Nc1ncnc(N)n1 has what recorded growth inhibition?
result: -17.1

query: Item O=C(NCC(O)CO)c1cc([N+](=O)[O-])cc([N+](=O)[O-])c1N(CCCl)CCCl (stereo not drawn) has what recorded growth inhibition?
result: 19.8

Reference for the values: PubChem BioAssay (NCI)
